Tested on: LXRb homodimer (NR concentration 270 nM)
Assay: PBM binding z-score (relative to random genomic background probes); higher = stronger binding; sequences stand for … in GC…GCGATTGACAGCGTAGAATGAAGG
Quick reference for PBM binding z-score among some sequences
Answer field: number only, no words.

# count of solved cases: 5
CGAACTAGGTCAAGGGACAGTGAAAGGCGACGTA; -0.604
TACCCTAGGTCATTCAGGGGCCAGTATAGAAAGC; 4.99
CAAACCAGGTCAAAGGTCAAAGTCGAGCCAACCA; 3.31
CAAACGAGGTCACAGAGGTCAAAGTCCGTGCGTA; 3.01
CCTTACGGGTCACGTGGTTATAGCACGACGAGCG; -0.474

Report PBM binding z-score for `TAGCCTAGTTCATGCGGGCCAGTATAGTGTCGGC` tested on LXRb homodimer (NR concentration 270 nM).
-0.772

Report PBM binding z-score for `CGTCCAAGGTCAAAGGTCAATGAAGAGATGACGG` tested on LXRb homodimer (NR concentration 270 nM).
2.18

Report PBM binding z-score for `GGAACGAGGTCAAAGTTGATAGCATCTGTCGACG` tested on LXRb homodimer (NR concentration 270 nM).
2.26

Report PBM binding z-score for `CAAACTAGGTCACAAAAGGTCAAAGTCGAATGAC` tested on LXRb homodimer (NR concentration 270 nM).
3.46

Report PBM binding z-score for `GGAACGAGGTCATTCGAGTTGATAGCATGGCGAT` tested on LXRb homodimer (NR concentration 270 nM).
1.68

Report PBM binding z-score for `CCTTACGGGTCACGAGGTCATAGCACGACGAGCG` tested on LXRb homodimer (NR concentration 270 nM).
0.62

Report PBM binding z-score for `CGTCCGAGGTCATAGGAGGTCAGTGAAGACAGAT` tested on LXRb homodimer (NR concentration 270 nM).
1.19

Report PBM binding z-score for `CCTACTGGGTCAAAGGTCATTGATTCCAATGCTC` tested on LXRb homodimer (NR concentration 270 nM).
1.18

Report PBM binding z-score for `CGTCAAAGTTCAACTAAGGTCACGTAAAGCACGC` tested on LXRb homodimer (NR concentration 270 nM).
2.98

Report PBM binding z-score for `ATCAAAAGGTCGAGGTGAGTATAGAGAAAGGGAA` tested on LXRb homodimer (NR concentration 270 nM).
1.32

Report PBM binding z-score for `TCTTGTAGATCGATAGAGGTTAAGAAAGTGCGCT` tested on LXRb homodimer (NR concentration 270 nM).
-0.0814

Report PBM binding z-score for `ATATGTAGTTTATCGGGTCATTCAGTTTGCGCAT` tested on LXRb homodimer (NR concentration 270 nM).
0.952

Report PBM binding z-score for `CCTACTGGGCCTAAGGTCATTGATTCCAATGCTC` tested on LXRb homodimer (NR concentration 270 nM).
0.209

Report PBM binding z-score for `CCTTACGGGTTACTCCAGGTTATAGCATCGGAGT` tested on LXRb homodimer (NR concentration 270 nM).
-0.167

Report PBM binding z-score for `GCATATAGGTAATACAAGGTCAAAGTCCGATTGT` tested on LXRb homodimer (NR concentration 270 nM).
1.42
